Cited source: patent US20260092071A1

# STUDY TARGET: SMARCA2 (Homo sapiens)
# Sequence (P51531 whole entry): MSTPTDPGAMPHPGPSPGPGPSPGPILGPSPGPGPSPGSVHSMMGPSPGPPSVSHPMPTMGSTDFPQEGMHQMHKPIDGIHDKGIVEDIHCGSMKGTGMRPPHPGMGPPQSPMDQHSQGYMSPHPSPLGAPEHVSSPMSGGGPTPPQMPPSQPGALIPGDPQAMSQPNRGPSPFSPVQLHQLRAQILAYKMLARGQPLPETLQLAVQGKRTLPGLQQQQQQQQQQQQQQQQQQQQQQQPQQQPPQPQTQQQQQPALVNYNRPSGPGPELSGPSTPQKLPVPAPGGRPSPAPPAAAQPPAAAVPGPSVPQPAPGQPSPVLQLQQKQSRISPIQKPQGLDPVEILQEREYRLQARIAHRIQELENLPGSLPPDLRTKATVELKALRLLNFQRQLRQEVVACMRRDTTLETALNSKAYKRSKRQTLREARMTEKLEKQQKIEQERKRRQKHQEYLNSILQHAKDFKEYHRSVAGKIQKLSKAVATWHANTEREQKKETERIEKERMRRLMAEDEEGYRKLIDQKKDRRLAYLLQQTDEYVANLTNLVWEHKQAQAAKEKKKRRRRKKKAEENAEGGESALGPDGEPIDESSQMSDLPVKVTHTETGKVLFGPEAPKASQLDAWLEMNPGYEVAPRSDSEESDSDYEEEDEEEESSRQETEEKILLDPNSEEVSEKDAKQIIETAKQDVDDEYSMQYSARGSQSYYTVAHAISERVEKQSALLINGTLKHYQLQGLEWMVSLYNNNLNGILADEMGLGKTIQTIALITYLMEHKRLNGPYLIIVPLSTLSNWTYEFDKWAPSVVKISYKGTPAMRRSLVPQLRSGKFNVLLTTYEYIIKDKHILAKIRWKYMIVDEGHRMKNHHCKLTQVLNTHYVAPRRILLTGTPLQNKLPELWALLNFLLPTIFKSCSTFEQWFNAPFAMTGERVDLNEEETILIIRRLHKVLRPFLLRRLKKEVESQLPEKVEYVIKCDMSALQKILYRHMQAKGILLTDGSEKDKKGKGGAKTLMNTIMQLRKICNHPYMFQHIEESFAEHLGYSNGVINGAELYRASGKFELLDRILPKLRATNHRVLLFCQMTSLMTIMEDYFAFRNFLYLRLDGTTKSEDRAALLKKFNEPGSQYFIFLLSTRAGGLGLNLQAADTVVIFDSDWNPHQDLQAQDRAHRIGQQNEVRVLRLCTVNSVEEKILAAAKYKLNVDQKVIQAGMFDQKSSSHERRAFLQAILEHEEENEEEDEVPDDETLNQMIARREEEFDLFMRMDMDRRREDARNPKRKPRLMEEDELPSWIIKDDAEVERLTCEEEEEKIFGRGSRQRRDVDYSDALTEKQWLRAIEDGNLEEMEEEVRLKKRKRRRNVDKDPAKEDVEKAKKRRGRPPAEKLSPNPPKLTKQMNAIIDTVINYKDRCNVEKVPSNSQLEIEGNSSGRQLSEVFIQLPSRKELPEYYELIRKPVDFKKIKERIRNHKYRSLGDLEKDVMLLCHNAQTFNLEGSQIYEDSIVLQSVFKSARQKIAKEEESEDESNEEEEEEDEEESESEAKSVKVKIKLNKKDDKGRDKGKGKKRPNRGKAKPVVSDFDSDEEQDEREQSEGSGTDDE
# ASSAY PROTOCOL: HiBit assay in engineered HT1080 CRISPR knock-in cell, 6 hrs (B series), SMARCA2
# Assay type: cell-based
# TEST SETTINGS: HT-1080, HT1080 CRISPR knock-in cells, 6 hrs incubation; read-out: SMARC A2 HT1080 HiBit Dmax (%)
PROPERTY: Dmax

COMPOUND | VAL
Cc1cc(C(C(=O)N2C[C@H](O)C[C@H]2C(=O)N[C@@H](CN2CCC(N3CCC(c4cccc5c4C(C)(C)c4nc(=O)c6c(Cl)cccc6n4-5)CC3)CC2)c2ccc(-c3scnc3C)cc2)C(C)C)on1 (some centres unmarked) | > 90%

Could you now look at the following compound, please?
**Q:** Which Dmax is reported for this compound? Cc1ncsc1-c1ccc([C@H](C)NC(=O)[C@@H]2C[C@@H](O)CN2C(=O)[C@@H](NC(=O)CCn2cc(-c3ccc4c(c3)-n3c(nc(=O)c5c(Cl)cccc53)C4(C)C)cn2)C(C)(C)C)cc1
**A:** < 50%
